TEST DETAILS: AUC (0 to 24 hrs) in Sprague-Dawley rat at 30 mg/kg, po by LC-MS/MS analysis
Format: ADME, organism-based
Design: dose 30 mg/kg, time < 24 hr, route oral
RECORDED CONDITIONS: in vivo
RESULT TYPE: AUC(0-t) at 24 h (ng·h/mL)
Please reply with the bare figure in ng·h/mL and do not write the unit itself.

### Prompt Provide only the value of recorded AUC(0-t) at 24 h for COCc1nnc(N2C[C@@H]3C[C@]3(c3ccc(F)cc3Cl)C2)n1-c1ccc(OC)nc1
### Response 16100

###

TEST DETAILS: Unbound brain-to-plasma concentration ratio in Sprague-Dawley rat by LC-MS/MS analysis
Assay type: ADME, cell-free
RECORDED CONDITIONS: read-out: K(p,uu,brain)
Listing of recorded Kp uu by entry.
Hey, just send me the number, nothing else.

| SMILES ENTRY | Kp uu |
| --- | --- |
| COCc1nnc(N2C[C@@H]3C[C@]3(c3ccc(F)cc3Cl)C2)n1-c1ccc(OC)nc1 | 0.188 |

Could you now consider this next compound?
### Prompt Provide only the value of recorded Kp uu for COCc1nnc(N2CC(Oc3ccc(F)cc3Cl)C2)n1-c1ccc(OC)nc1
### Response 0.064

###

Listing of recorded Cmax by entry.
TEST DETAILS: Cmax in Sprague-Dawley rat at 2 mg/kg, po measured for 24 hrs by LC-MS/MS analysis
Assay type: ADME, organism-based
Design: dose 2 mg/kg, route oral
RECORDED CONDITIONS: in vivo
Please reply with the bare figure in ng/mL and do not write the unit itself.

Use these answered entries as a reference point.
| COMPOUND | Cmax (ng/mL) |
| --- | --- |
| COCc1nnc(N2CCC(c3ccc(F)cc3Cl)C2)n1-c1ccc(OC)nc1 (stereo not given) | 204 |
| COCc1nnc(N2CCC(c3ccc(F)cc3Cl)CC2)n1-c1ccc(OC)nc1 | 96 |
| CCOCc1nnc(N2C[C@@H]3C[C@]3(c3ccc(F)cc3Cl)C2)n1-c1ccc(OC)nc1 | 135 |
| COCc1nnc(N2C[C@@H]3C[C@]3(c3ccc(F)cc3Cl)C2)n1-c1ccc(OC)nc1 | 350 |

Could you now consider this next compound?
### Prompt Provide only the value of recorded Cmax for COCc1nnc(N2C[C@@H]3C[C@]3(c3cccc(F)c3Cl)C2)n1-c1ccc(OC)nc1
### Response 15

###

TEST DETAILS: Half-life in Beagle dog at 20 mg/kg, po measured for 24 hrs by LC-MS/MS analysis
Format: ADME, organism-based, Canis lupus familiaris
RECORDED CONDITIONS: in vivo
RESULT TYPE: half-life (h)
Please reply with the bare figure in h and do not write the unit itself.

### Prompt Provide only the value of recorded half-life for COCc1nnc(N2C[C@@H]3C[C@]3(c3ccc(F)cc3Cl)C2)n1-c1ccc(OC)nc1
### Response 3.38

###

TEST DETAILS: Cmax in Sprague-Dawley rat at 150 mg/kg, po measured for 24 hrs by LC-MS/MS analysis
Type: ADME, organism-based
Set-up: dose 150 mg/kg, route oral
RECORDED CONDITIONS: in vivo
RESULT TYPE: Cmax (ng/mL)
Please reply with the bare figure in ng/mL and do not write the unit itself.

### Prompt Provide only the value of recorded Cmax for COCc1nnc(N2C[C@@H]3C[C@]3(c3ccc(F)cc3Cl)C2)n1-c1ccc(OC)nc1
### Response 14000
